Where do the numbers come from? From PubChem BioAssay (NCI).

System: SN12C renal
EXPERIMENTAL_PROTOCOL: NCI tumour cell line growth inhibition, 48 h

MOLECULE	TGI
Nc1c(C(=O)Nc2cccc3ccccc23)sc2nc3c(cc12)CCCC3	> 100 µM
Cc1sc2nc(-c3ccccn3)c(/C=N/N=C(N)N)n2c1C	28.9 µM
C#CCOCn1cnc2ncnc(Cl)c21	> 100 µM
CC1=CC(=O)c2cccc(NC3=NCCO3)c21	> 100 µM
COC1=NN2C(OC)(c3ccccc3)c3c(-c4ccccc4)sc(-c4ccccc4)c3C2(c2ccccc2)S1 (stereo not given)	> 100 µM
C/C1=C\CC[C@@](C)(O)[C@H]2C[C@H](CC/C(C)=C/CC1)C1(CC1)C(=O)O2	43.2 µM
O=C1C[C@@H](c2ccccc2)NCCCCN(O)CCCN1	> 100 µM
CN(C)CCCNC(=O)c1cc(NC(=O)c2cc(NC(=O)c3cc(NC(=O)CCCn4ccc(CO)c4CO)cn3C)cn2C)cn1C	> 100 µM
N#CC1N(C(=O)c2ccc(F)cc2)c2ccccc2N1C(=O)c1ccc(F)cc1	> 100 µM
COc1cc(C/C=C/c2ccccc2)c(OC)cc1O	34.5 µM

====

Test system: HCT-116 colon
EXPERIMENTAL_PROTOCOL: NCI tumour cell line growth inhibition, 48 h
Some molecules, each annotated with its measured GI50.

MOLECULE	MEASUREMENT_TARGET	GI50
O=C1C=C(N2CC2)c2ccccc2C1=O	HCT-116 colon	1470 nM
Clc1ccccc1-c1nc2ccccc2[nH]1	HCT-116 colon	> 100000 nM
COc1cc2c(cc1OCCCCC(=O)Nc1ccc(-c3nc4ccccc4s3)cc1)N=C[C@@H]1CCCN1C2=O	HCT-116 colon	1860 nM
CC(=O)OCCC/C(=C\c1ccc2ccccc2c1)[N+](=O)[O-]	HCT-116 colon	1610 nM
Cc1sc2nc(-c3ccccn3)c(/C=N/N=C(N)N)n2c1C	HCT-116 colon	4090 nM
COC(=O)C1CC2(c3ccc(C)cc3)C(c3ccc(C)cc3)=C(c3ccc(C)cc3)C1(c1ccc(C)cc1)S2=O (stereo not given)	HCT-116 colon	73200 nM
Cc1cc(C)cc(Nc2nccc(-c3c(-c4ccc(F)cc4)ncn3C3CCNCC3)n2)c1	HCT-116 colon	1130 nM
CC(=O)OC1CCC2(C)C(CCC3C2CCC2(C)C(C4=CC(=O)OC4)CCC32)C1 (stereo not given)	HCT-116 colon	7660 nM
CC12C=CC(C)(O1)C1C2c2ccccc2S1(=O)=O (stereo not given)	HCT-116 colon	47900 nM
Cc1cc(N(CCCNc2ccnc3cc(Cl)ccc23)Cc2cccs2)nc(Cl)n1	HCT-116 colon	1080 nM

====

Test system: SNB-19 CNS
EXPERIMENTAL_PROTOCOL: NCI tumour cell line growth inhibition, 48 h

COMPOUND	MEASUREMENT_TARGET	TGI
O=C1c2ccccc2C(=O)N1C(=S)c1ccccc1	SNB-19 CNS	> 100 µM
Cc1cc(S(=O)(=O)O)ccc1N=Nc1ccc(N=Nc2c(O)ccc3ccccc23)c(C)c1	SNB-19 CNS	> 100 µM
COc1cc2c(cc1OCCCCCCNC(=O)c1cc3ccccc3[nH]1)N=CC1CCCN1C2=O (stereo unspecified)	SNB-19 CNS	> 100 µM
c1ccc(-c2n(Cc3ccc4ccccc4n3)c3ccccc3[n+]2Cc2ccc3ccccc3n2)cc1	SNB-19 CNS	1.31 µM
Cc1ccccc1NC(=S)N=Nc1c(O)[nH]c2ccccc12	SNB-19 CNS	> 100 µM
CC(=O)Oc1ccc(OC(Oc2ccccc2)c2ccccc2)cc1 (stereo unspecified)	SNB-19 CNS	77.5 µM

====

System: MALME-3M melanoma
EXPERIMENTAL_PROTOCOL: NCI tumour cell line growth inhibition, 48 h
READOUT_TYPE: TGI

COMPOUND	READOUT_TYPE	VAL
O=C1Cc2ccccc2N1/N=C\c1ccc(O)cc1	TGI	> 100 µM
CSc1nc2c(nc(N)n2C2OCC(O)C(O)C2O)c(=O)[nH]1 (stereo unspecified)	TGI	> 100 µM
CC(C)[C@@H](C(=O)O[C@@H]1/C=C/C(=O)O[C@@H](C)CCC/C=C/[C@@H]2C[C@H](O)C[C@H]21)[N+](C)(C)C	TGI	> 100 µM
COc1cc(/C=C(\NC(=O)c2ccccc2)c2nc3ccc([N+](=O)[O-])cc3[nH]2)cc(OC)c1OC	TGI	> 100 µM
O=[N+]([O-])c1cccc2nc3ccccc3c(NCCC[N+]3([O-])CCCCC3)c12	TGI	0.352 µM
[N-]=[N+]=C1CNC(=O)NC1=O	TGI	> 100 µM
N=C(N)n1[nH]c2c(c1=O)CCC2	TGI	> 100 µM
C#CCOCn1cnc2ncnc(Cl)c21	TGI	> 100 µM
Oc1[nH]c2ccccc2c1N=NC(=S)N1CCCCCC1	TGI	3.02 µM
O=C(CCCn1ccnc1[N+](=O)[O-])NCCn1cnc([N+](=O)[O-])c1	TGI	> 100 µM
CC12C=CC(C)(O1)C1C2c2ccccc2S1(=O)=O (stereo unspecified)	TGI	> 100 µM

====

Each entry below lists one item and its recorded TGI value.
System: UACC-62 melanoma
EXPERIMENTAL_PROTOCOL: NCI tumour cell line growth inhibition, 48 h

COMPOUND	MEASUREMENT_TARGET	TGI
O=c1[nH]c(=O)n(C2CC(O)C(CO)O2)cc1NN=NCc1ccccc1 (stereo not drawn)	UACC-62 melanoma	> 100 µM
COc1cc(C/C=C/c2ccccc2)c(OC)cc1O	UACC-62 melanoma	37.7 µM
C1OCN2c3nonc3N3COCN4c5nonc5N1C2C43 (stereo not drawn)	UACC-62 melanoma	> 100 µM
CN(C)CCCNC(=O)c1cc(NC(=O)c2cc(NC(=O)c3cc(NC(=O)CCCn4ccc(CO)c4CO)cn3C)cn2C)cn1C	UACC-62 melanoma	37.9 µM
Cn1c(=O)c(C(c2ccccc2)c2c(O)c3ccccc3n(C)c2=O)c(O)c2ccccc21	UACC-62 melanoma	> 100 µM
CC(C)(C)OC(=O)NC(CCCCNC(=O)OCc1ccccc1)C(=O)NC(CCCCNC(=O)OCc1ccccc1)C(=O)ON1C(=O)CCC1=O (stereo not drawn)	UACC-62 melanoma	> 100 µM
COc1cc(C2[C@H]3C(=O)N(c4ccc(Cc5ccc(N6C(=O)[C@@H]7ON(c8ccccc8)C(c8cc(OC)c(OC)c(OC)c8)[C@@H]7C6=O)cc5)cc4)C(=O)[C@H]3ON2c2ccccc2)cc(OC)c1OC (stereo partly drawn)	UACC-62 melanoma	> 100 µM
CSc1nc(Cl)c(Br)c(Nc2c[nH]c(=O)[nH]c2=O)n1	UACC-62 melanoma	31.4 µM

====

Tested on: HL-60(TB) leukemia
EXPERIMENTAL_PROTOCOL: NCI tumour cell line growth inhibition, 48 h
Measured TGI of individual entries

COMPOUND	TGI
COc1cc(C/C=C/c2ccccc2)c(OC)cc1O	59.9 µM
O=C1C2Cc3ccccc3CN2C(=O)N1CN1CCN(CN2C(=O)C3Cc4ccccc4CN3C2=O)CC1 (stereo unspecified)	> 100 µM
O=C1c2ccccc2C(=O)N1C(=S)c1ccccc1	> 100 µM
Cc1ccccc1NC(=S)N/N=C(/c1ccccc1)c1ccccn1	1.24 µM
O=C(CCCn1ccnc1[N+](=O)[O-])NCCn1cnc([N+](=O)[O-])c1	> 100 µM
N#CC1N(C(=O)c2ccc(F)cc2)c2ccccc2N1C(=O)c1ccc(F)cc1	> 100 µM

====

Tested on: HCT-15 colon
EXPERIMENTAL_PROTOCOL: NCI tumour cell line growth inhibition, 48 h
// TGI lookup, one value per entry

COMPOUND	MEASUREMENT_TARGET	UNIT_OF_MEASUREMENT	QUALIFIER	TGI
CCN(CC)C(=S)SNCCc1ccc(S(N)(=O)=O)cc1	HCT-15 colon	µM	=	38.5
O=C1C[C@H](c2ccccc2)C2(C(=O)c3ccccc3C2=O)[C@@H](c2ccccc2)C1	HCT-15 colon	µM	>	100
COc1ccc(-c2cc(-c3ccccc3)c(C#N)c(=O)[nH]2)cc1	HCT-15 colon	µM	>	100
CC(=O)Nc1ccc(-c2nnc(SCC(=O)Nc3ccccc3[N+](=O)[O-])o2)cc1	HCT-15 colon	µM	>	100
CC(=O)Oc1ccc(OC(Oc2ccccc2)c2ccccc2)cc1 (stereo not given)	HCT-15 colon	µM	>	100
Clc1ccccc1-c1nc2ccccc2[nH]1	HCT-15 colon	µM	>	100
CCCNC(=O)c1cc2ccccc2cc1C(=O)OC	HCT-15 colon	µM	>	100
O=C1C2C(C(=O)[N]1[Hg][c]1ccccc1)C1(Cl)C(Cl)=C(Cl)C2(Cl)C1(Cl)Cl (stereo not given)	HCT-15 colon	µM	=	2.2
c1ccc(C(CCN2CCCC2)c2ccccn2)cc1 (stereo not given)	HCT-15 colon	µM	>	100
CC(C)(C)c1ccc(C(=O)N/N=C/c2ccc(O)cc2O)cc1	HCT-15 colon	µM	=	2.12
COc1cc2c(cc1OCCCCCCNC(=O)c1cc3ccccc3[nH]1)N=CC1CCCN1C2=O (stereo not given)	HCT-15 colon	µM	>	100
CC1CCC2c3c([nH]c4ccccc34)C3C(=O)N(C4CCCCC4)C(=O)C3C2C1 (stereo not given)	HCT-15 colon	µM	>	100
COc1cc(C(=O)/C=C/c2c(-c3ccc(F)cc3)nc3sccn23)cc(OC)c1OC	HCT-15 colon	µM	=	13.1
Cc1c(N2C(=O)/C(=C\c3ccc(O)cc3)N=C2c2ccccc2)c(=O)n(-c2ccccc2)n1C	HCT-15 colon	µM	>	100
C=C1c2nc3ccccc3n2C=C(c2ccc(Cl)cc2)N1c1ccccc1	HCT-15 colon	µM	=	24.5
Cc1cc(N(CCCNc2ccnc3cc(Cl)ccc23)Cc2cccs2)nc(Cl)n1	HCT-15 colon	µM	=	12.8
C=C1C(=O)[C@]23[C@H](O)[C@H]1CC[C@H]2[C@@]12CO[C@@]3(O)C[C@@H]1C(C)(C)CC[C@@H]2O	HCT-15 colon	µM	=	19.6
Cc1cc(C)cc(Nc2nccc(-c3c(-c4ccc(F)cc4)ncn3C3CCNCC3)n2)c1	HCT-15 colon	µM	=	2.85
O=C1c2ccccc2C2(c3ccc(Cl)cc3)NCc3ccccc3CN12 (stereo not given)	HCT-15 colon	µM	=	60.7
Cc1ccc(O)c(Cc2nc3ccccc3nc2-c2cccc(Br)c2)c1	HCT-15 colon	µM	=	66.9
Cn1c2ccccc2c2cc(-c3ccccc3)c3c(c21)C(=O)C=CC3=O	HCT-15 colon	µM	=	42.1
COC(=O)c1ccc(C)cc1C1CN=NC12Cc1cc(C)c(C)cc1C2=O (stereo not given)	HCT-15 colon	µM	>	100
CC1SC2=NC3=C(c4ccccc4C3=O)C(c3ccc(Br)cc3)N2C1=O (stereo not given)	HCT-15 colon	µM	>	100
COC(=O)[C@]12CC[C@@H](C)[C@H](C)[C@@H]1C1=CC[C@@H]3[C@@]4(C)C(c5ncon5)=C[C@@](C)(CO)C4=CC[C@@]3(C)[C@]1(C)CC2	HCT-15 colon	µM	=	4.08
CC(C)(C)OC(=O)NC(CCCCNC(=O)OCc1ccccc1)C(=O)NC(CCCCNC(=O)OCc1ccccc1)C(=O)ON1C(=O)CCC1=O (stereo not given)	HCT-15 colon	µM	>	100
CC(NC(=O)C(C)C(=O)NCc1ccc(C(F)(F)F)cc1)C(N)=O (stereo not given)	HCT-15 colon	µM	>	100
O=C1C=C(N2CC2)c2ccccc2C1=O	HCT-15 colon	µM	=	3.79
O=C(O)c1cn(C2CC2)c2cc(N3CCN(S(=O)(=O)c4ccc(Cl)c(Cl)c4)CC3)c(F)cc2c1=O	HCT-15 colon	µM	>	100
CC(C)C(/C=C/c1ccccc1)=N\NC(=O)N/N=C(/C=C/c1ccccc1)C(C)C	HCT-15 colon	µM	=	80.9
Nc1c(C(=O)Nc2cccc3ccccc23)sc2nc3c(cc12)CCCC3	HCT-15 colon	µM	>	100
Cc1cc(NC2=NCCO2)c2c(c1C)CCCC2	HCT-15 colon	µM	=	49.6
COc1ccc(CNc2nc3ccccc3nc2-c2cccs2)cc1OC	HCT-15 colon	µM	>	100
COc1cc2c(cc1OCCCCC(=O)Nc1ccc(-c3nc4ccccc4s3)cc1)N=C[C@@H]1CCCN1C2=O	HCT-15 colon	µM	=	9.81
Cc1ccc(S(=O)(=Nc2ccccc2)C(C(C)C)C(C)(C)Cl)cc1 (stereo not given)	HCT-15 colon	µM	>	50
NC1=CC(=O)C(=O)c2cccnc21	HCT-15 colon	µM	=	23.4
CC(=O)c1ccc(NC(=O)/C(=N\NC(N)=O)C(C#N)CC(C)(C)C=O)cc1 (stereo not given)	HCT-15 colon	µM	>	100
COc1ccc(N2CCN(CC(=O)N3CCN(c4nnc(-c5ccccc5)c(-c5ccccc5)n4)CC3)CC2)cc1	HCT-15 colon	µM	>	100
Sc1nnc(-c2ccccc2Nc2ccccc2-c2nnc(S)n2-c2ccccc2)n1-c1ccccc1	HCT-15 colon	µM	>	100
CCOC(OCC)C(CCc1ccccc1)c1c(N)nc(N)[nH]c1=O (stereo not given)	HCT-15 colon	µM	>	100
Cn1cc2ccccc2c1-c1nc(F)nc(Oc2ccc3c(c2)CC[C@@H]2C3CC[C@]3(C)C(O)CCC23)n1 (stereo not given in full)	HCT-15 colon	µM	=	33.4
